Entry source: patent US20240141025A1

Please provide measured kon for the entries that follow.
- study_target: recombinant human TTR F87M/L110M (human, UniProt P02766 21-147)
- assay_method_text: SPR (Biacore), mAb captured on anti-human chip, TTR F87M/L110M as analyte
Your reply should be a number followed by the unit it is expressed in.

GET /values?readout=kon&item= Hu14G8 H2L2 (antibody, human IgG1, kappa, V domains shown, also called humanized 14G8 VHv2/VLv2) VH: EVQLVESGGGLVQPGGSLKLSCAASGFTFSSYTMSWVRQTPEKRLELVAEINNSGDTTYYPDTVKGRFTISRDNAKNTLYLQMSSLKSEDTAMYYCARHYYYGGGYGGWFFDVWGQGTLVTVSS VL: DIVMTQSPLSLPVTPGEPASISCRSNKSLLHSNGNTYLYWFLQKPGQSPQLLIYRVSNLASGVPDRFSGSGSGTDFTLKISRVEAEDVGVYYCMQHLEYPLTFGQGTKLEIKR
326000 M⁻¹ s⁻¹

GET /values?readout=kon&item= Hu14G8 H2L1 (antibody, human IgG1, kappa, V domains shown, also called humanized 14G8 VHv2/VLv1) VH: EVQLVESGGGLVQPGGSLKLSCAASGFTFSSYTMSWVRQTPEKRLELVAEINNSGDTTYYPDTVKGRFTISRDNAKNTLYLQMSSLKSEDTAMYYCARHYYYGGGYGGWFFDVWGQGTLVTVSS VL: DIVMTQSAPSLPVTPGESVSISCRSNKSLLHSNGNTYLYWFLQKPGQSPQLLIYRVSNLASGVPDRFSGSGSGTAFTLKISRVEAEDVGVYYCMQHLEYPLTFGQGTKLEIKR
307000 M⁻¹ s⁻¹

GET /values?readout=kon&item= Hu14G8 H2L3 (antibody, human IgG1, kappa, V domains shown, also called humanized 14G8 VHv2/VLv3) VH: EVQLVESGGGLVQPGGSLKLSCAASGFTFSSYTMSWVRQTPEKRLELVAEINNSGDTTYYPDTVKGRFTISRDNAKNTLYLQMSSLKSEDTAMYYCARHYYYGGGYGGWFFDVWGQGTLVTVSS VL: DIVMTQSPLSLPVTPGEPASISCRSSKSLLHSNGNTYLYWFLQKPGQSPQLLIYRVSNLASGVPSRFSGSGSGTDFTLKISRVEAEDVGVYYCMQHLEYPLTFGQGTKLEIKR
252000 M⁻¹ s⁻¹

GET /values?readout=kon&item= Hu14G8 H3L1 (antibody, human IgG1, kappa, V domains shown, also called humanized 14G8 VHv3/VLv1) VH: EVQLVESGGGLVQPGGSLKLSCAASGFTFSSYTMSWVRQTPEKRLELVAEINNSGDTTYYPDTVKGRFTISRDNAKNTLYLQMNSLRAEDTAVYYCARHYYYGGGYGGWFFDVWGQGTLVTVSS VL: DIVMTQSAPSLPVTPGESVSISCRSNKSLLHSNGNTYLYWFLQKPGQSPQLLIYRVSNLASGVPDRFSGSGSGTAFTLKISRVEAEDVGVYYCMQHLEYPLTFGQGTKLEIKR
386000 M⁻¹ s⁻¹
